Value source: patent US20040116336A1

target: APJ (orphan G protein-coupled receptor protein); assay: cell-based or functional assay
Sequence (P35414 whole entry): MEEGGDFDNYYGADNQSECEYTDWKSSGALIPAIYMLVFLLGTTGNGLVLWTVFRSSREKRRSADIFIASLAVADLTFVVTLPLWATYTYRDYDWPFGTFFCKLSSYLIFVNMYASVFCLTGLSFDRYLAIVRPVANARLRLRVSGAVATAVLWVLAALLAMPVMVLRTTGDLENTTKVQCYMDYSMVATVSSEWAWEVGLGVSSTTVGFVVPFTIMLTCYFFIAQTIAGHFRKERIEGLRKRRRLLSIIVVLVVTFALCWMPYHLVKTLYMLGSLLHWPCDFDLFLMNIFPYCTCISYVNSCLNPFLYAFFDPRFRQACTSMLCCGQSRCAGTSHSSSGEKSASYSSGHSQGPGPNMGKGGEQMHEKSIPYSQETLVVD
Non-standard residues stand in square brackets, D forms with d. No end group written: not given here. *: point of attachment. Cha = N[C@@H](CC1CCCCC1)C(=O)O; Morpholide = C1CN(*)CCO1
recorded-metric: EC50, inhibition of forskolin-stimulated cAMP production (CHO-A10 clone 6 cells) (nM)

The examples below pair each entry with its known result.
binder="RPALSHKGP[Cha]PX (not fully specified (residue 12); printed as Arg-Pro-Ala-Leu-Ser-His-Lys-Gly-Pro-Cha-Pro-Phe(Cl)) [Arg-Pro-Ala-Leu-Ser-His-Lys-Gly-Pro-Cha-Pro-Phe(Cl)]" meas_value=0.41
binder="RRQRPRLSHKGP[Cha]PX (not fully specified (residue 15); printed as Arg-Arg-Gln-Arg-Pro-Arg-Leu-Ser-His-Lys-Gly-Pro-Cha-Pro-Phe(Cl)) [Arg-Arg-Gln-Arg-Pro-Arg-Leu-Ser-His-Lys-Gly-Pro-Cha-Pro-Phe(Cl)]" meas_value=0.53
binder="XRPRLSRKGPMPF (N-terminal pGlu; peptide derivative; Xaa means pGlu) [pGlu-Arg-Pro-Arg-Leu-Ser-Arg-Lys-Gly-Pro-Met-Pro-Phe]" meas_value=0.081
binder="XRPRLFHKGPMPF (N-terminal pGlu; peptide derivative; Xaa means pGlu) [pGlu-Arg-Pro-Arg-Leu-Phe-His-Lys-Gly-Pro-Met-Pro-Phe]" meas_value=0.22

P. RRQRPRLSARG-Morpholide [Arg-Arg-Gln-Arg-Pro-Arg-Leu-Ser-Ala-Arg-Gly-Mor]
Q. RPRLSHAGP[Cha]PX (not fully specified (residue 12); printed as Arg-Pro-Arg-Leu-Ser-His-Ala-Gly-Pro-Cha-Pro-Phe(Cl)) [Arg-Pro-Arg-Leu-Ser-His-Ala-Gly-Pro-Cha-Pro-Phe(Cl)]
IN: Lab note: check whether P or Q shows the higher recorded EC50, inhibition of forskolin-stimulated cAMP production (CHO-A10 clone 6 cells). Please reply using the label of the selected record.
OUT: P
